These data points were gathered from PubChem BioAssay (NCI).

Tested on: SK-MEL-2 melanoma
Assay: NCI tumour cell line growth inhibition, 48 h
measurement kind: TGI

* CCC(CO)COC(=O)/C=C/C(=O)OCC(CC)CO (stereo unspecified) | > 100 µM
* NS(=O)(=O)c1ccc(N=Nc2c(O)[nH]c3cccc(CCc4ccncc4)c23)cc1 | > 25 µM
* Cc1ccc(OC2CC(n3cnc4c(=O)[nH]c(Br)nc43)OC2Oc2ccc(C)cc2)cc1 (stereo unspecified) | 75.8 µM
* COc1ccc(NS(=O)(=O)c2ccc3ncn(NS(=O)(=O)c4ccc(I)cc4)c(=O)c3c2)cc1 | > 100 µM
* COc1ccc(/C=C2\N=C(N3CCOCC3)NC2=O)cc1 | > 100 µM

## Task Request body: readout TGI, system SK-MEL-2 melanoma, query "Nc1nc(N)c2cc(Sc3ccc(Cl)cc3)ccc2n1" . Return the value.
## Result 5.53 µM

## Task Request body: readout TGI, system SK-MEL-2 melanoma, query "CSc1nc(SC)c2c(C)cn(Cc3ccccc3)c2n1" . Return the value.
## Result > 100 µM

## Task Request body: readout TGI, system SK-MEL-2 melanoma, query "N#Cc1nc(N)c(C#N)[nH]1" . Return the value.
## Result > 100 µM

* * *

In this section we review reported TGI values for a set of compounds.
Test system: SR leukemia
Test: NCI tumour cell line growth inhibition, 48 h
API: value field is a number in µM; no unit string.

- O=C(NC(=S)Nc1ccc(-c2nc3ccccc3[nH]2)cc1)c1ccc2ccccc2c1: 11.6
- O=C(OC1C#CCSCC#C/C=C\1)c1cnc2ccccc2n1 (stereo unspecified): 53.1

// switching to the query compound
## Task Request body: readout TGI, system SR leukemia, query "Cc1cc(C)c2c(=O)cc(-c3ccc(F)cc3)[nH]c2n1" . Return the value.
## Result 67.7

* * *

Test system: ACHN renal
Experiment: NCI tumour cell line growth inhibition, 48 h
measurement kind: TGI

# count of solved cases: 3
- OCC(O)COc1ccc(F)cc1 (centres undefined): > 100 µM
- COc1c(O)cc2c(c1CC=C(C)C)OC(=O)c1c(cc(O)c(CC=C(C)C)c1O)O2: 7.49 µM
- CC1OC(n2ccc3ccc([N+](=O)[O-])cc32)C(O)C(O)C1O (centres undefined): > 100 µM

## Task TGI for "CCOC(=O)c1sc(Nc2cc(Cl)ccc2Cl)nc1C" ?
## Result > 100 µM

## Task TGI for C=CCC1=C2CCCCC2CCC1=O (centres undefined) ?
## Result > 100 µM

## Task TGI for "C=CC(C)(C)c1c(OC)oc2ccc(OC)c(C)c2c1=O" ?
## Result > 100 µM

## Task TGI for c1ccc(C2C3=C(c4ccccc4CC3)N3c4cc5nc6ccccc6nc5cc4NC34CCCCC24)cc1 (centres undefined) ?
## Result > 10 µM

## Task TGI for N#CC(NNC(=O)Cc1ccccc1)c1ccc(O)cc1 (centres undefined) ?
## Result > 100 µM

## Task TGI for "CNc1cccc(-c2cc(=O)c3cc4c(cc3[nH]2)OCO4)c1" ?
## Result > 100 µM

## Task TGI for "CCOC(=O)Cc1csc(Nc2nc(O)c(C3=c4ccccc4=NC3=O)s2)n1" ?
## Result 47.3 µM

## Task TGI for O=C1C2=C(c3ccccc31)C(c1ccccc1Cl)NC(=S)N2 (centres undefined) ?
## Result > 100 µM

## Task TGI for "O=C(O)[C@@]1(Cc2ccc(O)cc2)C[C@@H]2Cc3ccccc3N2N1" ?
## Result > 100 µM

## Task TGI for CN1CCC2(CC1)C(=O)N(NC(N)=O)C(=O)C2c1ccccc1 (centres undefined) ?
## Result > 100 µM

## Task TGI for Cc1nn(C(=O)c2ccc(Cl)cc2)c2c1C(c1ccccc1)SC(N)=N2 (centres undefined) ?
## Result > 10 µM

## Task TGI for "Cc1cc2c(=O)cc(-c3ccc(C(=O)O)cc3)oc2c(C(N)=O)c1C" ?
## Result > 100 µM

## Task TGI for "O=C(O)c1cc(C(=O)C(=O)c2cc(C(=O)O)c(O)c3ccccc23)c2ccccc2c1O" ?
## Result > 100 µM

## Task TGI for "COc1ccc(/C=C/C(=O)c2ccc(B(O)O)cc2)cc1O" ?
## Result > 84.7 µM

## Task TGI for "CC(=O)c1cc2sc3ccccc3c2[nH]1" ?
## Result > 100 µM

## Task TGI for "Clc1ccc(Nc2ncnc3ccccc23)cc1" ?
## Result 71.7 µM

* * *

In this section we review reported TGI values for a set of compounds.
Tested on: K-562 leukemia
Test: NCI tumour cell line growth inhibition, 48 h

# count of solved cases: 3
- Fc1ccc(-c2nn3c(COc4ccccc4Cl)nnc3s2)cc1Oc1ccccc1: > 100 µM
- CCOC(=O)c1cc2c(OC)cc(OC)cc2oc1=O: > 100 µM
- COc1ccc(-c2c(C(C)=O)c(C)n(C3OC(COC(C)=O)C(OC(C)=O)C(OC(C)=O)C3OC(C)=O)c(=S)c2C#N)cc1 (stereo not given): > 100 µM

## Task TGI for COC1OC(CO)C(O)C(NC(=O)N(C)N=O)C1O (stereo not given) ?
## Result > 100 µM

## Task TGI for CCOC(=O)C(CC(C)C)NC(=O)C(N)Cc1ccc(N(CCCl)CCCl)cc1 (stereo not given) ?
## Result 41.6 µM

## Task TGI for C=CC(Br)(CBr)CCC1OC1(C)C (stereo not given) ?
## Result > 100 µM

## Task TGI for "COc1ccc2c(c1)C(=O)/C(=C/c1ccccc1)C2" ?
## Result > 100 µM

## Task TGI for "COc1cc2cc(Oc3ccc(NC(=O)Nc4ccc(F)c(C(F)(F)F)c4)cc3)c(C)nc2cc1OCCN1CCOCC1" ?
## Result 10.3 µM

## Task TGI for OC1CCC(COC(c2ccccc2)(c2ccccc2)c2ccccc2)O1 (stereo not given) ?
## Result 41.1 µM

## Task TGI for "CC1=CC=C2C(C)(C)CC[C@@H]3OC(=O)[C@H]1[C@]23C" ?
## Result > 100 µM

* * *

Test system: MCF7 breast
Test: NCI tumour cell line growth inhibition, 48 h
In this section we review reported TGI values for a set of compounds.

# count of solved cases: 2
* CN1CCN(Cn2nc(-c3ccccc3)n(/N=C/c3ccc(-c4ccc(Cl)cc4Cl)o3)c2=S)CC1 | 38.6 µM
* O=C(NCCNc1nccc(-c2c(-c3ccc(F)cc3)nc3sccn23)n1)Nc1cccc(C(F)(F)F)c1 | 19.5 µM

## Task TGI for "COc1cc(/C=C2\N=C(c3ccccc3)N(c3ccc4c(c3)Sc3cc(N5C(=O)/C(=C/c6cc(OC)c(OC)c(OC)c6)N=C5c5ccccc5)ccc3N4)C2=O)cc(OC)c1OC" ?
## Result 37.1 µM

## Task TGI for "COc1ccc(-c2nc(Nc3ccc(F)cc3)nc(Nc3ccc4c(c3)nc(C)n4Cc3ccccc3)n2)cc1" ?
## Result > 100 µM

## Task TGI for "COc1ccc2c(c1)C(=O)/C(=C/c1ccccc1)C2" ?
## Result > 100 µM

## Task TGI for "CSc1nc(SC)c2cnn(-c3ccnc4cc(Cl)ccc34)c2n1" ?
## Result > 41 µM

## Task TGI for "CN(NC(=O)c1ccc(Cl)cc1)C1=NCCCCN1" ?
## Result > 100 µM

## Task TGI for "CSc1nc(SC)c2c(C)cn(Cc3ccccc3)c2n1" ?
## Result > 100 µM

## Task TGI for "Clc1ccc(-c2cn3c(nc4ccccc43)c(/C=C/c3cccs3)n2)cc1" ?
## Result > 100 µM

* * *

Test system: HCT-15 colon
Assay: NCI tumour cell line growth inhibition, 48 h
measurement kind: TGI

* CC(C)[C@]12O[C@H]1[C@@H]1O[C@]13[C@]1(O[C@H]1C[C@H]1C4=C(CC[C@@]13C)C(=O)OC4)[C@@H]2OC(=O)OC(C)(C)C | > 100 µM
* Cc1cccc2c1NC(=O)[C@@H](NC(=O)[C@H](CCC(F)(F)F)[C@H](CCC(F)(F)F)C(N)=O)N=C2c1cccc(F)c1 | > 100 µM
* CCc1nc2c(n1CC)C(=O)c1ccccc1C2=O | > 100 µM
* N#CC(NNC(=O)Cc1ccccc1)c1ccc(O)cc1 (centres undefined) | > 100 µM
* O=C(O)c1cc(C(=O)C(=O)c2cc(C(=O)O)c(O)c3ccccc23)c2ccccc2c1O | > 100 µM
* COc1c(O)cc2c(c1CC=C(C)C)OC(=O)c1c(cc(O)c(CC=C(C)C)c1O)O2 | 8.94 µM
* Cc1cc(N(C)C)ccc1N=Nc1ccc2ncccc2c1 | > 100 µM
* N[C@@H]1c2c(Br)sc(Br)c2C(=O)[C@H]1Br | 60.8 µM

## Task TGI for c1ccc(C2C3=C(c4ccccc4CC3)N3c4cc5nc6ccccc6nc5cc4NC34CCCCC24)cc1 (centres undefined) ?
## Result > 10 µM

## Task TGI for CCCCN(CCCC)C(=O)C(=O)C(C(=O)C(=O)OC)c1nc2ccccc2o1 (centres undefined) ?
## Result > 100 µM

## Task TGI for "COc1cc2c3c(n(CCCNC(C)(C)CO)c(=O)c2cc1OC)-c1cc2c(cc1C3=O)OCO2" ?
## Result 16.6 µM

## Task TGI for COc1cc(C2SC(N)=Nc3c2c(C)nn3C(=O)Cc2ccccc2)cc(OC)c1OC (centres undefined) ?
## Result > 100 µM
